The reported numbers originate from patent US10118947B2.

Experiment: Intravenous pharmacokinetics in Sprague Dawley rats
Format: in vivo
Settings: Sprague Dawley, in vivo; rat, intravenous bolus 5.2 mg/kg; read-out: elimination half-life
observable: half-life (min)
Give the value in min but do not write min after it.

Per the records, this compound ( CC(=O)N[C@@H]1CSCc2cc3cc(c2)CSC[C@@H](NC(=O)[C@@H](CCCNC(=N)N)NC(=O)[C@@H](C)NC(=O)[C@H]2CCCN2C(=O)[C@@H](Cc2c[nH]c4ccccc24)NC(=O)[C@@H](CO)NC1=O)C(=O)N[C@H](CC(C)C)C(=O)N[C@H](Cc1c[nH]cn1)C(=O)N[C@H](CCC(N)=O)C(=O)N[C@H](CC(=O)O)C(=O)N[C@H](CC(C)C)C(=O)N[C@@H](C(N)=O)CSC3 [All D 06-34-18, Ac-cswparclhqdlc-NH2(TMB), reference compound] ) has half-life equal to 54

* * *

Target: rat plasma Kallikrein (Rattus norvegicus, UniProt P14272)
Construct: polyhistidine tag (N, cleaved yes); proTEV cleavage site (pro-peptide linker) (N, cleaved yes); made in house; host or cells: HEK-293 (suspension-adapted)
Sequence (P14272 391-638 limits assumed): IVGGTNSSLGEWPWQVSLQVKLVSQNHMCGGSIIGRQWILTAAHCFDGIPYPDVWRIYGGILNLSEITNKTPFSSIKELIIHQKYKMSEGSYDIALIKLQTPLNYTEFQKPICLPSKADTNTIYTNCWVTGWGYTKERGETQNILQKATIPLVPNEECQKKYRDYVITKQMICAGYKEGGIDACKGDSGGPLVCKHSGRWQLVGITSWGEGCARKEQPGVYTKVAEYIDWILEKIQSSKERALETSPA
Assay: Functional enzyme inhibition assay with fluorogenic substrate Z-PheArg-AMC, rat plasma Kallikrein
Assay type: biochemical
Details: Table 26b, loop 1 and loop 2 modified derivatives
Numbered stars: 1 amine (or outer) side, 2 acyl side, 3 side chain; on linkers, the order of the positions; unused ones are H or OH. Bridge positions count the residues as written; N and C are the ends. Square brackets hold non-standard residues; d marks the D form. Peptide text beside a SMILES is read from it. TBMB = c1c(C[*:1])cc(C[*:3])cc1C[*:2]; hArg = N=C(N)NCCCC[C@H](N)C(=O)O; Tle = CC(C)(C)[C@H](N)C(=O)O; Aze = O=C(O)[C@@H]1CCN1
Hi there, I'd appreciate the recorded Ki for every entry that follows.
Give the value in nM but do not write nM after it.

Per the records, this compound ( `CC(=O)N[C@H]1CSCc2cc3cc(c2)CSC[C@H](NC(=O)[C@H](CCCCNC(=N)N)NC(=O)[C@H](Cc2ccc(O)cc2)NC(=O)[C@@H]2CCN2C(=O)[C@H](Cc2ccccc2)NC(=O)[C@H](CO)NC1=O)C(=O)N[C@@H](C)CN[C@@H](Cc1c[nH]cn1)C(=O)N[C@@H](CCC(N)=O)C(=O)N[C@@H](CC(=O)O)C(=O)N[C@@H](CC(C)C)C(=O)N[C@H](C(N)=O)CSC3` ) has Ki equal to 41

Per the records, this compound ( CC(=O)N[C@H]1CSCc2cc3cc(c2)CSC[C@H](NC(=O)[C@H](CCCCNC(=N)N)NC(=O)[C@H](Cc2ccc(O)cc2)NC(=O)[C@@H]2CCN2C(=O)[C@H](Cc2ccccc2)NC(=O)[C@H](CO)NC1=O)C(=O)N[C@@H](CC(C)C)C(=O)N[C@@H](Cc1c[nH]cn1)C(=O)N[C@@H](CCC(=O)O)C(=O)N[C@@H](CC(=O)O)C(=O)N[C@@H](CC(C)C)C(=O)N[C@H](C(N)=O)CSC3 [Ac-(06-34-18) Phe2 Aze3 Tyr4 HArg5 Glu8] (Ac-CSF[Aze]Y[hArg]CLHEDLC-NH2; linker 1-7-13 via TBMB) ) has Ki equal to 23

Per the records, this compound ( CC(=O)N[C@H]1CSCc2cc3cc(c2)CSC[C@H](NC(=O)[C@H](CCCNC(=N)N)NC(=O)[C@H](Cc2ccc(O)cc2)NC(=O)[C@@H]2CCN2C(=O)[C@H](Cc2ccccc2)NC(=O)[C@H](CO)NC1=O)C(=O)N[C@@H](C(C)(C)C)C(=O)N[C@@H](Cc1c[nH]cn1)C(=O)N[C@@H](CCC(N)=O)C(=O)N[C@@H](CC(=O)O)C(=O)N[C@@H](CC(C)C)C(=O)N[C@H](C(N)=O)CSC3 [Ac-(06-34-18) Phe2 Aze3 Tyr4 tBuGly6] (Ac-CSF[Aze]YRC[Tle]HQDLC-NH2; linker 1-7-13 via TBMB) ) has Ki equal to 193

* * *

Biological target: human plasma Kallikrein (Homo sapiens)
Construct: purchased Stratech, UK
Sequence (P03952 20-638): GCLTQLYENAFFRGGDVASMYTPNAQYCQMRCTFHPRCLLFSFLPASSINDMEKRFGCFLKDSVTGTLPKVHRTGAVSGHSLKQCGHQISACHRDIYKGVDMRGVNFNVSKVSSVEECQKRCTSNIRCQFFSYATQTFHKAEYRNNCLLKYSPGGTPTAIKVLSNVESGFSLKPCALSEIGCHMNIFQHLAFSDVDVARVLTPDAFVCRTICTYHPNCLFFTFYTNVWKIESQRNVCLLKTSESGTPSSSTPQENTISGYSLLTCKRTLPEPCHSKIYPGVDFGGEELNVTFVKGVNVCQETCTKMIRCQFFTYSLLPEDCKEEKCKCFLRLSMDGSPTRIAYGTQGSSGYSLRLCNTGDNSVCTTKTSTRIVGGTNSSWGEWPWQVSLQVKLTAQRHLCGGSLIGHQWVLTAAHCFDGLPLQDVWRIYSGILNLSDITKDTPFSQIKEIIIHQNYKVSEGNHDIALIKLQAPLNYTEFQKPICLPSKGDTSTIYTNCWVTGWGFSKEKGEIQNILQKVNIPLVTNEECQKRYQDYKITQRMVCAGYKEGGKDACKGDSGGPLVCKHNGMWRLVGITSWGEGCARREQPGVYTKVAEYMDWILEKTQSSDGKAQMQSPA
Test: Functional enzyme inhibition assay with fluorogenic substrate Z-PheArg-AMC, human plasma Kallikrein
Assay type: biochemical
Settings: Table 24b, residue 7 modifications; read-out: Ki
Numbered stars: 1 amine (or outer) side, 2 acyl side, 3 side chain; on linkers, the order of the positions; unused ones are H or OH. Bridge positions count the residues as written; N and C are the ends. Square brackets hold non-standard residues; d marks the D form. Peptide text beside a SMILES is read from it. TBMB = c1c(C[*:1])cc(C[*:3])cc1C[*:2]; 2Thi = N[C@@H](Cc1cccs1)C(=O)O
observable: Ki (nM)
Give the value in nM but do not write nM after it.

Per the records, this compound ( CC(=O)N[C@H]1CSCc2cc3cc(c2)CSC[C@H](NC(=O)[C@H](CCCNC(=N)N)NC(=O)[C@H](Cc2ccc(O)cc2)NC(=O)[C@@H]2CCCN2C(=O)[C@H](Cc2ccccc2)NC(=O)[C@H](CO)NC1=O)C(=O)N[C@@H](CC(C)C)C(=O)N[C@@H](Cc1cccs1)C(=O)N[C@@H](CCC(N)=O)C(=O)N[C@@H](CC(=O)O)C(=O)N[C@@H](CC(C)C)C(=O)N[C@H](C(N)=O)CSC3 [Ac-(06-34-18) Phe2 Tyr4 Thi7] (Ac-CSFPYRCL[2Thi]QDLC-NH2; linker 1-7-13 via TBMB) ) has Ki equal to 34

* * *

Biological target: human plasma Kallikrein (Homo sapiens)
Construct: purchased Stratech, UK
Experiment: Functional enzyme inhibition assay with fluorogenic substrate Z-PheArg-AMC, human plasma Kallikrein
Type: biochemical
Conditions: Table 24a; residue 6 modification in the context of Ac-(06-34-18) Phe2 Tyr4; read-out: Ki (nM) Ac-(06-34-18) Phe2 Tyr4
Procedure: Functional enzyme assays were conducted in 10 mM Tris HCl, 150 mM NaCl, 10 mM MgCl2, 1 mM CaCl2) and 1 mg/mL BSA (all Sigma UK) pH7.4 at 25° C. in solid black 96 well plates. […] Release of AMC was measured using a Pherastar FS (BMG Labtech), excitation 360 nm, emission 460 nm. The rate of the linear phase of the reaction, typically 5 to 45 minutes, was calculated in MARS data analysis software (BMG labtech). […]
Numbered stars: 1 amine (or outer) side, 2 acyl side, 3 side chain; on linkers, the order of the positions; unused ones are H or OH. Bridge positions count the residues as written; N and C are the ends. Square brackets hold non-standard residues; d marks the D form. Peptide text beside a SMILES is read from it. TBMB = c1c(C[*:1])cc(C[*:3])cc1C[*:2]; Tle = CC(C)(C)[C@H](N)C(=O)O
observable: Ki (nM)
Give the value in nM but do not write nM after it.

Per the records, this compound ( CC(=O)N[C@H]1CSCc2cc3cc(c2)CSC[C@H](NC(=O)[C@H](CCCNC(=N)N)NC(=O)[C@H](Cc2ccc(O)cc2)NC(=O)[C@@H]2CCCN2C(=O)[C@H](Cc2ccccc2)NC(=O)[C@H](CO)NC1=O)C(=O)N[C@@H](Cc1ccccc1)C(=O)N[C@@H](Cc1c[nH]cn1)C(=O)N[C@@H](CCC(N)=O)C(=O)N[C@@H](CC(=O)O)C(=O)N[C@@H](CC(C)C)C(=O)N[C@H](C(N)=O)CSC3 [Ac-(06-34-18) Phe2 Tyr4 Phe6] (Ac-CSFPYRCFHQDLC-NH2; linker 1-7-13 via TBMB) ) has Ki equal to 14.9

Per the records, this compound ( CC(=O)N[C@H]1CSCc2cc3cc(c2)CSC[C@H](NC(=O)[C@H](CCCNC(=N)N)NC(=O)[C@H](Cc2ccc(O)cc2)NC(=O)[C@@H]2CCCN2C(=O)[C@H](Cc2ccccc2)NC(=O)[C@H](CO)NC1=O)C(=O)N[C@@H](C(C)(C)C)C(=O)N[C@@H](Cc1c[nH]cn1)C(=O)N[C@@H](CCC(N)=O)C(=O)N[C@@H](CC(=O)O)C(=O)N[C@@H](CC(C)C)C(=O)N[C@H](C(N)=O)CSC3 [Ac-(06-34-18) Phe2 Tyr4 tBuGly6] (Ac-CSFPYRC[Tle]HQDLC-NH2; linker 1-7-13 via TBMB) ) has Ki equal to 3.76

* * *

Assay: Quantitative plasma stability Method #3 (LC-MS, 95% plasma), human plasma
Assay type: in vitro ADME
Conditions: human plasma (95%), Table 2, ex vivo human plasma, read-out: Human Plasma Stability (t½ in hrs) (converted)
Numbered stars: 1 amine (or outer) side, 2 acyl side, 3 side chain; on linkers, the order of the positions; unused ones are H or OH. Bridge positions count the residues as written; N and C are the ends. Square brackets hold non-standard residues; d marks the D form. Peptide text beside a SMILES is read from it. Phe(4-guanidino) = N=C(N)Nc1ccc(C[C@H](N)C(=O)O)cc1; TBMB = c1c(C[*:1])cc(C[*:3])cc1C[*:2]; NMeR = CN[C@@H](CCCNC(=N)N)C(=O)O; hArg = N=C(N)NCCCC[C@H](N)C(=O)O
observable: half-life at 5 uM
In your response, put the unit directly after the numeric value.

Per the records, this molecule ( CC(=O)N[C@H]1CSCc2cc3cc(c2)CSC[C@H](NC(=O)[C@H](CCCNC(=N)N)N(C)C(=O)[C@H](Cc2ccc(O)cc2)NC(=O)[C@@H]2CCCN2C(=O)[C@H](Cc2ccccc2)NC(=O)[C@H](CO)NC1=O)C(=O)N[C@@H](CC(C)C)C(=O)N[C@@H](Cc1c[nH]cn1)C(=O)N[C@@H](CCC(N)=O)C(=O)N[C@@H](CC(=O)O)C(=O)N[C@@H](CC(C)C)C(=O)N[C@H](C(N)=O)CSC3 [Ac-(06-34-18) Phe2 Tyr4 NMeArg5] (Ac-CSFPY[NMeR]CLHQDLC-NH2; linker 1-7-13 via TBMB) ) has half-life at 5 uM equal to 1.7 h

Per the records, this molecule ( CC(=O)N[C@H]1CSCc2cc3cc(c2)CSC[C@H](NC(=O)[C@H](Cc2ccc(NC(=N)N)cc2)NC(=O)[C@H](Cc2ccc(O)cc2)NC(=O)[C@@H]2CCCN2C(=O)[C@H](Cc2ccccc2)NC(=O)[C@H](CO)NC1=O)C(=O)N[C@@H](CC(C)C)C(=O)N[C@@H](Cc1c[nH]cn1)C(=O)N[C@@H](CCC(N)=O)C(=O)N[C@@H](CC(=O)O)C(=O)N[C@@H](CC(C)C)C(=O)N[C@H](C(N)=O)CSC3 [Ac-(06-34-18) Phe2 Tyr4 4GuanPhe5] (Ac-CSFPY[Phe(4-guanidino)]CLHQDLC-NH2; linker 1-7-13 via TBMB) ) has half-life at 5 uM equal to 2.9 h

Per the records, this molecule ( CC(=O)N[C@H]1CSCc2cc3cc(c2)CSC[C@H](NC(=O)[C@H](CCCCNC(=N)N)NC(=O)[C@H](Cc2ccc(O)cc2)NC(=O)[C@@H]2CCCN2C(=O)[C@H](Cc2ccccc2)NC(=O)[C@H](CO)NC1=O)C(=O)N[C@@H](CC(C)C)C(=O)N[C@@H](Cc1c[nH]cn1)C(=O)N[C@@H](CCC(N)=O)C(=O)N[C@@H](CC(=O)O)C(=O)N[C@@H](CC(C)C)C(=O)N[C@H](C(N)=O)CSC3 [Ac-(06-34-18) Phe2 Tyr4 HomoArg5] (Ac-CSFPY[hArg]CLHQDLC-NH2; linker 1-7-13 via TBMB) ) has half-life at 5 uM equal to 2.1 h
